system_under_test: T1, human LAG3 (form used in Octet, Biacore and HDX-MS not given) (human, UniProt P18627 23-450, limits assumed)
T1 sequence (looked up): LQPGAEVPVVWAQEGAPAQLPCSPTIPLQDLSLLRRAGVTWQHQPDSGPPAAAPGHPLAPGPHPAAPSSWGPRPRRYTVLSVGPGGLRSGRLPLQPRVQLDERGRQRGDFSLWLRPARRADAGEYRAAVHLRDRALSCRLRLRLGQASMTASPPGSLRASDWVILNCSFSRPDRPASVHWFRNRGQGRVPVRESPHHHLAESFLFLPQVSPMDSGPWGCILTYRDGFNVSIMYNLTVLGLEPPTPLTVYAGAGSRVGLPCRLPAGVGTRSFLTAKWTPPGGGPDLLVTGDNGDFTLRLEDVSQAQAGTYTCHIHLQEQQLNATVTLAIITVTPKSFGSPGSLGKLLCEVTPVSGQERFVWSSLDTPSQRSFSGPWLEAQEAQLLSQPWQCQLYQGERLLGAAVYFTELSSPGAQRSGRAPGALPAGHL
experiment_description: BLI (Octet)
Recorded measurements of koff, one per entry
Value expressed in s⁻¹; do not type the unit.

binder	reading_unit	koff
023c (antibody, human IgG4, V domains shown, human IgG4 S228P / kappa chimeric antibody; also called chimeric antibody 023; ES005-023c; not shown: human kappa light chain constant region (pcDNA3.4-hIgGk vector)) VH: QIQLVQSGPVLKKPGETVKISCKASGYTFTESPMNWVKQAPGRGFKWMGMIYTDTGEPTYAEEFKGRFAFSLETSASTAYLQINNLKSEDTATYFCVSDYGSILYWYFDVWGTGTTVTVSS VL: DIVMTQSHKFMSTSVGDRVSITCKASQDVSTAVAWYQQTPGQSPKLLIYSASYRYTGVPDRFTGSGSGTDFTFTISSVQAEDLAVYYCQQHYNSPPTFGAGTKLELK	s⁻¹	0.000161
hu023.12 (antibody, human IgG4, V domains shown, humanized from 023c) VH: QVQLVQSGPELKKPGASVKVSCKASGYTFTESPMNWVRQAPGQGFEWMGIIYTDTGEPTYAEEFKGRFVFSLDTSVSTAYLQISSLKAEDTAVYFCVSDYGSILYWYFDVWGQGTLVTVSS VL: DIQMTQSPSSLSTSVGDRVTITCKASQDVSTAVAWYQQKPGKSPKLLIYSASYRYTGVPSRFSGSGSGTDFTFTISSVQPEDFATYYCQQHYNAPPTFGQGTKLEIK	s⁻¹	5.58e-05
hu023.13 (antibody, human IgG4, V domains shown, humanized from 023c) VH: QIQLVQSGPELKKPGASVKISCKASGYTFTESPMNWVRQAPGQGFEWMGIIYTDTGEPTYAEEFKGRFVFSLDTSVSTAYLQISSLKAEDTAVYFCVSDYGSILYWYFDVWGQGTLVTVSS VL: DIQMTQSPSSLSASVGDRVTITCKASQDVSTAVAWYQQKPGKAPKLLIYSASYRYTGVPSRFSGSGSGTDFTLTISSLQPEDFATYYCQQHYNAPPTFGQGTKLEIK	s⁻¹	3.67e-05
hu023.08 (antibody, human IgG4, V domains shown, humanized from 023c) VH: QVQLVQSGPEVKKPGASVKVSCKASGYTFTESPMNWVRQAPGQGFEWMGIIYTDTGEPTYAEEFKGRVTMTLDTSTSTVYMELSSLRSEDTAVYFCASDYGSILYWYFDVWGQGTLVTVSS VL: DIQMTQSPSSLSASVGDRVTITCKASQDVSTAVAWYQQKPGKSPKLLIYSASYRYTGVPSRFSGSGSGTDFTFTISSLQPEDFATYYCQQHYNAPPTFGQGTKLEIK	s⁻¹	0.000219
hu023.10 (antibody, human IgG4, V domains shown, humanized from 023c) VH: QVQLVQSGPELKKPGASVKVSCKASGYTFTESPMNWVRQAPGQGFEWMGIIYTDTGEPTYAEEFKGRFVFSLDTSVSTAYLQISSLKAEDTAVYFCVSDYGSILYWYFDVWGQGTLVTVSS VL: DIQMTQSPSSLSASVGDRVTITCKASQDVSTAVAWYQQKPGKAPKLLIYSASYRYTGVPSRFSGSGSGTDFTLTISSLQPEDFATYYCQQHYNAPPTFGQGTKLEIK	s⁻¹	7.96e-05

Kindly note the recorded koff for hu023.11 (antibody, human IgG4, V domains shown, humanized from 023c) VH: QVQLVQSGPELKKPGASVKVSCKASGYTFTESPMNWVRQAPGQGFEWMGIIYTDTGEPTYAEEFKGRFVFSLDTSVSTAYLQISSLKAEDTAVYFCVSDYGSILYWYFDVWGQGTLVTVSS VL: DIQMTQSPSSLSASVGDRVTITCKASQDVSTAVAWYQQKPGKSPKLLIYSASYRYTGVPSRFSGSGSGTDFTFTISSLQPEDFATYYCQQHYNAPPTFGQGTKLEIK , which is 2.37e-05

Kindly note the recorded koff for hu023.14 (antibody, human IgG4, V domains shown, humanized from 023c) VH: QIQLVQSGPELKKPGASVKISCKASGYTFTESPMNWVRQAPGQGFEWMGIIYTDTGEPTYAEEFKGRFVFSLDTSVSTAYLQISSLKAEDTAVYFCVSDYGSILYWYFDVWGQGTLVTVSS VL: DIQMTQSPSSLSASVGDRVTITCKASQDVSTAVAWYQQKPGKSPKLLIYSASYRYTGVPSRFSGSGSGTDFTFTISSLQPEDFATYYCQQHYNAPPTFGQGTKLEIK , which is 7.72e-05
